# assay.system: Udorn His-GST-ED WT (Influenza A virus A/Udorn/307/1972, UniProt P03495 86-237)
# Sequence (P03495 86-237): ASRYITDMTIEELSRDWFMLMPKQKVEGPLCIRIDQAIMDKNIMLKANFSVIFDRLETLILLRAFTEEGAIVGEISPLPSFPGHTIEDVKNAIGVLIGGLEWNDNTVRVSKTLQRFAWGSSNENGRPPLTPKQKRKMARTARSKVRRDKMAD
# measurement.description: fluorescence polarization; protein prep B, A260/280 0.85; […], pH 8.0, 1 h at room temperature; […]
# condition: protein: recombinant; tags: N-term 10xHis-GST; label: 5'-FAM (FITC) on both strands; blunt
metric.name: Kd (nM)
// return numeric value only (unit: nM, not printed)

Query FAM-dsRNA 16 bp (dsRNA) RNA 1: CCAUCCUCUACAGGCG RNA 2: CGCCUGUAGAGGAUGG yields Kd of 196
